- assay_system: T1, Nbp2, Q12163
- T1 sequence (Q12163 103-180, looked up): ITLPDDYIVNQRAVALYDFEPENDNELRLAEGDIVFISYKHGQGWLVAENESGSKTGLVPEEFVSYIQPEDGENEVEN
- protocol_details: SPOT array
- reported_conditions: median of control spots 357
outcome_measure: SPOT intensity

Reference set (5 entries):
KRRAPPPVPKKPSSR : 751
GLRRARYKFPGQQKI : 22
RTIRKLPLMSLSEYF : 1
EEEEEHPPLPARRKS : 1
PPIPIVPSSPAPPLP : 0

P = RNNRPVPPPPPMRTT
Q = VGFRLALKFPSRITG
Input pair: P , Q . Output: entry with lower SPOT intensity. Lab note: record the label of whichever item you select. P
(P: 0, Q: 1100)
